tested on: Staphylococcus sp.; experiment: in vitro antibacterial evaluation, MIC by broth dilution; assay type: cell-based; details: broth dilution, 18 hours at 35° C.
A collection of compounds and their measured MIC Staphylococcus aureus (GC 4544)
Give the value in µg/mL but do not write µg/mL after it.

Observe how each entry below is paired with its result.
{"compound": "CC(c1ccccc1)C1NC(=O)CNC(=O)C(CO)NC(=O)C(C(O)C2CNC(=N)N2C2OC(CO)C(O)C(O)C2O)NC(=O)C(C(O)C2CNC(=N)N2)NC(=O)C(Cc2ccc(OC3OC(CO)C(OC4OC(COC(=O)OCc5ccccc5)C(O)C(O)C4O)C(O)C3O)cc2)NC1=O (stereo not shown) [Example 101a]", "target system": "Staphylococcus sp.", "quantitative readout": 4}
{"compound": "CC(c1ccccc1)C1NC(=O)CNC(=O)C(CO)NC(=O)C(C(O)C2CNC(=N)N2C2OC(CO)C(O)C(O)C2O)NC(=O)C(C(O)C2CNC(=N)N2)NC(=O)C(Cc2ccc(OC3OC(CO)C(OC4OC(CO)C(O)C(OCc5ccc(OCc6ccccc6)cc5)C4O)C(O)C3O)cc2)NC1=O (stereo not shown) [Example 231c]", "target system": "Staphylococcus sp.", "quantitative readout": 2}
{"compound": "CC(c1ccccc1)C1NC(=O)CNC(=O)C(CO)NC(=O)C(C(O)C2CNC(=N)N2C2OC(CO)C(O)C(O)C2O)NC(=O)C(C(O)C2CNC(=N)N2)NC(=O)C(Cc2ccc(OC3OC(CO)C(OC4OC(COCC=Cc5ccccc5)C(O)C(O)C4O)C(O)C3O)cc2)NC1=O (stereo not shown) [Example 242]", "target system": "Staphylococcus sp.", "quantitative readout": 8}

Continue with the compound presented below.
Give the reported MIC Staphylococcus aureus (GC 4544) for this compound. CCCCOC(=O)CCC1OCC2OC(OC3C(CO)OC(Oc4ccc(CC5NC(=O)C(C(C)c6ccccc6)NC(=O)CNC(=O)C(CO)NC(=O)C(C(O)C6CNC(=N)N6C6OC(CO)C(O)C(O)C6O)NC(=O)C(C(O)C6CNC(=N)N6)NC5=O)cc4)C(O)C3O)C(O)C(O)C2O1 (stereo not shown) [Example 114]
2
